// provenance: patent US10941158B2

# System: Diplodia maydis (Dm)
# experimental details: Growth inhibition assay of fungal pathogens
# Type: cell-based
# applied conditions: Stenocarpella maydis, 48 h, Table 4b, read-out: Concentration at 90% Inhibition Dm

compound | unit | relation symbol | IC90
COCCO[C@@H](Cn1c(=O)n(C(C)(C)C(=O)N2CCCC2)c(=O)c2c(C)c(-n3cccn3)sc21)c1cc(F)ccc1OC | µg/mL | > | 50
COc1ccccc1[C@H](Cn1c(=O)n(C(C)(C)C(=O)N2CCCCC2)c(=O)c2c(C)c(-n3cccn3)sc21)OC(C)C | µg/mL | = | 2
COc1ccc(F)cc1[C@H](Cn1c(=O)n(C(C)(C)C(=O)NC(C)C)c(=O)c2c(C)c(-n3cccn3)sc21)OCCC#N | µg/mL | > | 50
COc1ccccc1[C@H](Cn1c(=O)n(C(C)(C)C(N)=O)c(=O)c2c(C)c(-n3cccn3)sc21)OC(C)C | µg/mL | > | 50
COc1ccc(F)cc1[C@H](Cn1c(=O)n([C@H](C)C(=O)NC(C)C)c(=O)c2c(C)c(-n3cccn3)sc21)OC(C)C | µg/mL | = | 2
COc1ccc(F)cc1[C@H](Cn1c(=O)n(C(C)(C)C(=O)N2CCCC2)c(=O)c2c(C)c(-n3cccn3)sc21)OCCO | µg/mL | > | 50
COc1ccc(F)cc1[C@H](Cn1c(=O)n(C(C)(C)C(N)=O)c(=O)c2c(C)c(-n3cccn3)sc21)OC1CCC(=O)CC1 | µg/mL | > | 50
COc1ccccc1[C@H](Cn1c(=O)n(C(C)(C)C(=O)NC(C)C)c(=O)c2c(C)c(-n3cccn3)sc21)OC(C)C | µg/mL | = | 2
COc1ccc(F)cc1[C@H](Cn1c(=O)n(C(C)(C)C(=O)NC(C)C)c(=O)c2c(C)c(-n3cccn3)sc21)OC1CCC(=O)CC1 | µg/mL | = | 2
COc1ccc(F)cc1[C@H](Cn1c(=O)n(C(C)(C)C(=O)NC(C)C)c(=O)c2c(C)c(-n3cccn3)sc21)OCCO | µg/mL | = | 10
COc1ccc(F)cc1[C@H](Cn1c(=O)n(C(C)(C)C(=O)N2CCOCC2)c(=O)c2c(C)c(-n3cccn3)sc21)OC(C)C | µg/mL | = | 10
COc1ccc(F)cc1[C@H](Cn1c(=O)n(C(C)(C)C(=O)NC(C)C)c(=O)c2c(C)c(-n3cccn3)sc21)OCC(C)(C)O | µg/mL | = | 2
COCCO[C@@H](Cn1c(=O)n([C@H](C)C(=O)N2CCCC2)c(=O)c2c(C)c(-n3cccn3)sc21)c1cc(F)ccc1OC | µg/mL | > | 50
COc1ccc(F)cc1[C@H](Cn1c(=O)n(C(C)C(=O)N2CCCC2)c(=O)c2c(C)c(-n3cccn3)sc21)OC(C)C (stereo partly drawn) | µg/mL | = | 2
COc1ccc(F)cc1[C@H](Cn1c(=O)n(C(C)(C)C(=O)N2CCCC2)c(=O)c2c(C)c(-n3cccn3)sc21)OCC(C)(C)O | µg/mL | = | 10
COc1ccc(F)cc1[C@H](Cn1c(=O)n([C@@H](C)C(=O)N2CCCC2)c(=O)c2c(C)c(-n3cccn3)sc21)OC(C)C | µg/mL | = | 0.4
COc1ccccc1[C@H](Cn1c(=O)n(C(C)(C)C(=O)NC(C)C)c(=O)c2c(C)c(-n3cccn3)sc21)OCC(C)C | µg/mL | = | 2
COc1ccccc1[C@H](Cn1c(=O)n(C(C)(C)C(=O)N2CCCC2)c(=O)c2c(C)c(-n3cccn3)sc21)OC1CCOCC1 | µg/mL | = | 10
